Numbers sourced from ChEMBL document CHEMBL1131976.

log10(IC50) values for the molecules below.
# Test system: P388
# Experiment: In vitro cytotoxic activity against murine cancer cell line P388 by using MTT assay
# Assay type: functional, cell-based
# Condition Notes: Mus musculus
A difference of one corresponds to tenfold IC50; all values are log10 with IC50 in nM.

Example results:
input_smiles=Cc1cc(O)c2c(c1)O[C@@]1(C(=O)NCCO)C(=CC=C[C@H]1O)C2=O measured_on=P388 endpoint_value=3.43
input_smiles=Cc1cc(O)c2c(c1)O[C@@]1(C(=O)N(C)C)C(=CC=C[C@H]1O)C2=O measured_on=P388 endpoint_value=2.18
input_smiles=Cc1cc(O)c2c(c1)O[C@@]1(C(N)=O)C(=CC=C[C@H]1O)C2=O measured_on=P388 endpoint_value=1.72
input_smiles=CNC(=O)[C@]12Oc3cc(C)cc(O)c3C(=O)C1=CC=C[C@H]2O measured_on=P388 endpoint_value=2.38
input_smiles=Cc1cc(O)c2c(c1)O[C@@]1(C(=O)N3CCCC3)C(=CC=C[C@H]1O)C2=O measured_on=P388 endpoint_value=2.75

// next item, log10(IC50) requested
Q: Give its log10(IC50) value. Item: COC(=O)[C@]12Oc3cc(C)cc(O)c3C(=O)C1=CC=C[C@H]2O
A: 1.38

---

pIC50 values for the molecules below.
# Measured On: DNA topoisomerase 2 (Drosophila melanogaster)
# Sequence (P15348 whole entry): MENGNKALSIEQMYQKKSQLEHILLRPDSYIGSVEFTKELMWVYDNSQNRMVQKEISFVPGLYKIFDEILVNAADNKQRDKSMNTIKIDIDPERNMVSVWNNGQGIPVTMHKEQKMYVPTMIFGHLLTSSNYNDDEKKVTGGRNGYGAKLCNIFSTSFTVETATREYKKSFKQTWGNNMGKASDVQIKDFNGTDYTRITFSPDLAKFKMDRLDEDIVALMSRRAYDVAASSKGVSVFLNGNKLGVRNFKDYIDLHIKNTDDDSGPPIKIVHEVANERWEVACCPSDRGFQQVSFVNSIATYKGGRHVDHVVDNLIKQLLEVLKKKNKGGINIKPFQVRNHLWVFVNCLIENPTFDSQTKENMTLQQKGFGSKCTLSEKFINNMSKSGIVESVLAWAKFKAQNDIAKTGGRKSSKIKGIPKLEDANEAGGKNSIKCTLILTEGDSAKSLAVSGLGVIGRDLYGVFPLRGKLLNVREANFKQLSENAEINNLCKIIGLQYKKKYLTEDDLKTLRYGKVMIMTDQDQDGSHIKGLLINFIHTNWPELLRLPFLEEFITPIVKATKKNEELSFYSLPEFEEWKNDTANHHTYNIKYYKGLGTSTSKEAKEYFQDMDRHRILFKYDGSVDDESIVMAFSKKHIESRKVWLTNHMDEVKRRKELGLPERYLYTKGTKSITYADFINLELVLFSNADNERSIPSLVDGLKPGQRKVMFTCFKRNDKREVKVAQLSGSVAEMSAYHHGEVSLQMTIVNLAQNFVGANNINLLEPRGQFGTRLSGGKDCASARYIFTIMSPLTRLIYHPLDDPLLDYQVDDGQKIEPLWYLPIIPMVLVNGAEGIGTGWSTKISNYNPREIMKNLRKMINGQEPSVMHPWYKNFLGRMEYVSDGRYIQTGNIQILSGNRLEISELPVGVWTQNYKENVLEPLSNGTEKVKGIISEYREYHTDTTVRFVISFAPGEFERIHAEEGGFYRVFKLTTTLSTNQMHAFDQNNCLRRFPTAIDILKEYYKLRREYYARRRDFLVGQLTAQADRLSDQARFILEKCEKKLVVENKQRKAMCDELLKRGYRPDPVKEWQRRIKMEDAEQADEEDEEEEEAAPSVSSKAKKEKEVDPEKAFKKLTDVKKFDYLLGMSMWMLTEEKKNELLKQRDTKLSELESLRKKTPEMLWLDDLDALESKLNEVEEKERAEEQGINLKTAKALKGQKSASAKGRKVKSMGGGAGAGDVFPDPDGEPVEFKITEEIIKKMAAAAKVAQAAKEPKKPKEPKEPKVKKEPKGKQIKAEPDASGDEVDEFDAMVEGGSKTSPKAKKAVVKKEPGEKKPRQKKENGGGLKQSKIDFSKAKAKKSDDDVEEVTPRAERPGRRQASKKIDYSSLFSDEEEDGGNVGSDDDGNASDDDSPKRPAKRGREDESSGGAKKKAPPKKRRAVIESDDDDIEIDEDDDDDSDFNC
In simple prose, pIC50 is minus the logarithm base ten of a concentration in moles per litre.

input_smiles=Cc1cc(O)c2c(c1)O[C@@]1(C(=O)NCCO)C(=CC=C[C@H]1O)C2=O measured_on="DNA topoisomerase 2 (Drosophila melanogaster)" endpoint_value=4.64
input_smiles=CNC(=O)[C@]12Oc3cc(C)cc(O)c3C(=O)C1=CC=C[C@H]2O measured_on="DNA topoisomerase 2 (Drosophila melanogaster)" endpoint_value=3.88
input_smiles=COC(=O)[C@]12Oc3cc(C)cc(O)c3C(=O)C1=CC=C[C@H]2O measured_on="DNA topoisomerase 2 (Drosophila melanogaster)" endpoint_value=5.66

// next item, pIC50 requested
Q: Give its pIC50 value. Item: Cc1cc(O)c2c(c1)O[C@@]1(C(N)=O)C(=CC=C[C@H]1O)C2=O
A: 4.54
